Note to self: these compounds have pKi reported for Cannabinoid receptor 2 (Homo sapiens, UniProt P34972) in various publications.
pKi: −log10 of the molar value.

Qu. Write down the reported pKi (system: Cannabinoid receptor 2 (Homo sapiens, UniProt P34972)) of CCC(C)(O)NC(=O)CCC(=O)/C=C/c1ccc(-c2ccccc2)cc1 (stereo not drawn)
Sequence (P34972 whole entry): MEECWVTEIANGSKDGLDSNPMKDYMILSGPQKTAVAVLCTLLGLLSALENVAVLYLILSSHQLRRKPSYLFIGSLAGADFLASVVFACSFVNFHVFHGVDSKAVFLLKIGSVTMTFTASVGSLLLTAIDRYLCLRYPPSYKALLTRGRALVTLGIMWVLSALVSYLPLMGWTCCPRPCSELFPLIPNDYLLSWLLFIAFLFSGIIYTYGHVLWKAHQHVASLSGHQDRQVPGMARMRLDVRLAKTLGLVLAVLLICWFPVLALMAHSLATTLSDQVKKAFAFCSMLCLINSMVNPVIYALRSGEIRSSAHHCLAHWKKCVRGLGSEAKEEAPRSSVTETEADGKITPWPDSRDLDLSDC
Ans. < 5.00

Qu. Write down the reported pKi (system: Cannabinoid receptor 2 (Homo sapiens, UniProt P34972)) of CCOC(=O)C(CC)(CC)NC(=O)c1ccc(N2CC(OCF)C2)c(OCC2CC2)n1
Ans. 7.85

Qu. Write down the reported pKi (system: Cannabinoid receptor 2 (Homo sapiens, UniProt P34972)) of Cc1ccc(/C=C/C(=O)CCC(=O)NC(CO)(CO)CO)cc1
Ans. < 5.00

Qu. Write down the reported pKi (system: Cannabinoid receptor 2 (Homo sapiens, UniProt P34972)) of C=CCc1ccc(OCC)c(-c2ccc(OCC)c(CC=C)c2)c1
Ans. 6.87

Qu. Write down the reported pKi (system: Cannabinoid receptor 2 (Homo sapiens, UniProt P34972)) of CCC(C)(O)NC(=O)CCC(=O)/C=C/c1ccc(N(C)C)cc1 (stereo not drawn)
Ans. < 5.00

Qu. Write down the reported pKi (system: Cannabinoid receptor 2 (Homo sapiens, UniProt P34972)) of CC1CCCN(Cc2cc(-c3ccc4c(c3)OCO4)ccc2OCC(=O)NCc2ccccc2F)C1 (stereo not drawn)
Ans. 5.35

Qu. Write down the reported pKi (system: Cannabinoid receptor 2 (Homo sapiens, UniProt P34972)) of Cc1ccc(/C=C/C(=O)CCC(=O)Nc2ccc(O)cc2)cc1
Ans. < 5.00

Qu. Write down the reported pKi (system: Cannabinoid receptor 2 (Homo sapiens, UniProt P34972)) of O=C(c1cc2c(cc1F)OC(c1ccc(F)cc1)(c1ccc(Cl)cc1Cl)O2)N1CCOCC1 (stereo not drawn)
Ans. 8.52

Qu. Write down the reported pKi (system: Cannabinoid receptor 2 (Homo sapiens, UniProt P34972)) of CC(=O)Nc1ccc(OC(=O)CCC(=O)Nc2cccc3ccccc23)cc1
Ans. < 5.00

Qu. Write down the reported pKi (system: Cannabinoid receptor 2 (Homo sapiens, UniProt P34972)) of CCC(C)(O)NC(=O)CCC(=O)/C=C/c1ccccc1 (stereo not drawn)
Ans. < 5.00

Qu. Write down the reported pKi (system: Cannabinoid receptor 2 (Homo sapiens, UniProt P34972)) of CCOC(=O)CNC(=O)CCC(=O)Nc1cccc2ccccc12
Ans. < 5.00

Qu. Write down the reported pKi (system: Cannabinoid receptor 2 (Homo sapiens, UniProt P34972)) of C=CCc1ccc(O)c(-c2cc(CC=C)ccc2O)c1
Ans. < 5.70

Qu. Write down the reported pKi (system: Cannabinoid receptor 2 (Homo sapiens, UniProt P34972)) of CCOC(=O)CNC(=O)CCC(=O)/C=C/c1ccc(OCc2ccccc2)cc1
Ans. < 5.00
